System: 786-0
Test Details: NCI tumour cell line growth inhibition, 48 h
Calls of active or inactive are those of the source. No stated cut-off is given here; in the data, active = GI50 up to about 1.1 µM and inactive = higher.
Labels: 1 = active, 0 = inactive

- Compound: "COc1cc(OCc2ccc3nc(-c4ccccc4)c(Cl)nc3c2)cc(OC)c1OC"
  Assigned Class: 0
- Compound: "COC1=CC(=O)C2C(C1=O)C(c1ccc(Cl)cc1)[C@@H]2C (stereo partly drawn)"
  Assigned Class: 0
- Compound: "c1ccc2c(c1)c1c(n2CCOCCN2CCCC2)CCCC1"
  Assigned Class: 0
- Compound: "O=C(Cc1ccccc1)NNc1nc(NNC(=O)c2ccncc2)nc(Nc2ccccc2)n1"
  Assigned Class: 0
- Compound: "CN(C)c1n/c(=N/c2cccc(Cl)c2)ss1"
  Assigned Class: 0
- Compound: "COc1ccc([C@@]23OC[C@@H]4[C@@H](OC[C@@H]42)c2cc(OC)c(OC)cc23)cc1OC"
  Assigned Class: 0
- Compound: "C/C(=N/NC(N)=S)c1ccc[nH]1"
  Assigned Class: 0
- Compound: "COc1cccc2c1C(=O)c1c(O)c3c(c(O)c1C2=O)C[C@@](O)(/C(C)=N\\O)C[C@@H]3OC1CC(N)C(O)C(C)O1 (stereo partly drawn)"
  Assigned Class: 1
- Compound: "CC(NC(=O)c1ccc(Cl)c(Cl)c1)c1ccc(-c2ccccc2)cc1 (stereo not drawn)"
  Assigned Class: 0
- Compound: "Cc1ccccc1NC(=O)C(=O)C(C#N)c1ccc(Cl)cc1 (stereo not drawn)"
  Assigned Class: 0
- Compound: "Cc1cc2c(c(C)c1O)C(C)(C)CN2C(=O)C(C)(C)C"
  Assigned Class: 0
- Compound: "Nc1ccc(C(=O)N/C(=C\\c2cccc([N+](=O)[O-])c2)c2nc3c4c(ccc3[nH]2)C(=O)c2ccccc2C4=O)cc1"
  Assigned Class: 0
- Compound: "Cc1nn(C(=O)Cc2ccccc2)c2c1C(c1ccc(/C=C/c3ccccc3)cc1)SC(=N)N2 (stereo not drawn)"
  Assigned Class: 0
- Compound: "COc1cccc(-c2cc(O)c3cc(C)cnc3n2)c1"
  Assigned Class: 1
- Compound: "C[N+](C)(C)c1nc(N)nc2c1ncn2C1OC(CO)C(O)C1O (stereo not drawn)"
  Assigned Class: 0
- Compound: "COCCNC1CCC(=O)c2[nH]c3ccccc3c21 (stereo not drawn)"
  Assigned Class: 0
- Compound: "O=C(/C=C/c1ccc(O)cc1)c1cc(O)cc(O)c1"
  Assigned Class: 0
- Compound: "Cc1[nH]c2ccccc2c1/C=N/c1ccc(Oc2ccccc2)cc1"
  Assigned Class: 0
- Compound: "COc1cccc(/N=N/N2CCCC2)c1"
  Assigned Class: 0
- Compound: "CC1(Sc2ccccc2)CN(Cc2ccccc2)C1=O (stereo not drawn)"
  Assigned Class: 0
- Compound: "NNC(=O)/C(=C/c1ccc(Cl)c(Cl)c1)NC(=O)c1ccccc1"
  Assigned Class: 0
- Compound: "Cc1cc(Cl)ccc1NC(=O)CCCC(=O)C1C/C(=N/O)CC/C1=N\\O (stereo not drawn)"
  Assigned Class: 0
- Compound: "CNC(=O)OCc1nc(SSC(C)(C)C)n(C)c1COC(=O)NC"
  Assigned Class: 0
- Compound: "CCCC12Cc3c(OC)ccc(OC)c3CC(Cc3c(OC)ccc(OC)c31)C2=O (stereo not drawn)"
  Assigned Class: 0
- Compound: "Cc1cc(S(=O)(=O)O)ccc1/N=N/c1c(O)ccc2ccccc12"
  Assigned Class: 0
- Compound: "COC(=O)N1[C@H]2Cc3c(OC)c(C)c(OC)c(OC)c3[C@@H]1/C(=C\\c1cc(OC)c(OC)c(C)c1OC)N(Cc1ccccc1)C2=O"
  Assigned Class: 0
- Compound: "Cc1c(O)c(OC2OC(CO)C(O)C(O)C2O)cc2c1C=C[C@@H]1[C@@]2(C)C(=O)C[C@]2(C)[C@@H]([C@@](C)(O)C(O)/C=C/C(C)(C)O)[C@H](O)C[C@@]12C (stereo partly drawn)"
  Assigned Class: 0
- Compound: "COC1(OC)C2(Cl)C(Cl)=C(Cl)C1(Cl)C1C2C2CC1(C(=O)O)c1ccccc12 (stereo not drawn)"
  Assigned Class: 0
